B1: POU domain, class 3, transcription factor 2, residues 356 to 411; numbered along this chain, P20265 (parent)
chain: KKRTSIEVSVKGALESHFLKCPKPSAQEITSLADSLQLEKEVVRVWFCNRRQKEKR

variants of: B1; experiment: abundance fitness (aPCA) (normalised: wild type 0, dead -1); higher = more abundant; growth selection in yeast, the domain comes from the species named; conditions: Homo sapiens
measuredProperty: abundance fitness
Numbers only.

>>> recordednumber("KKRTSIEVSVKGALESHFLKCPKPSAQEITSLADSLQLEKEAVRVWFCNRRQKEKR")
-0.089

# batch: return abundance fitness for each of the 7 variants below
1. KKRTSIEVSVKGALESHFLKCPSPSAQEITSLADSLQLEKEVVRVWFCNRRQKEKR
2. KKRTSIEVSLKGALESHFLKCPKPSAQEITSLADSLQLEKEVVRVWFCNRRQKEKR
3. KKRTSIEVSVKGALESHFLKCPKPSAQEITSLADSLQLEKTVVRVWFCNRRQKEKR
4. KKRTSIEVSVKGALESHFLKCPKPSAQEITSLADSLQLEKEVVRVWFCNRLQKEKR
5. KKRTSIEVSVKGALESHFLKCPKPSEQEITSLADSLQLEKEVVRVWFCNRRQKEKR
6. KKRTSIEVSVKGALESHFLKCPKPSAQEITSLADSLQLEKEVVRVWFCSRRQKEKR
7. KKRTSFEVSVKGALESHFLKCPKPSAQEITSLADSLQLEKEVVRVWFCNRRQKEKR

Result:
1: 0.024; 2: -0.134; 3: -0.303; 4: 0.061; 5: -0.064; 6: -0.137; 7: -0.438

# batch: return abundance fitness for each of the 2 variants below
1. KKRTSIEVSVKYALESHFLKCPKPSAQEITSLADSLQLEKEVVRVWFCNRRQKEKR
2. KKRTSIEVSVKGALESHFLKCPKPSAQEITSLADSLQLEKEVNRVWFCNRRQKEKR

Result:
1. -0.058
2. -0.889

# batch: return abundance fitness for each of the 2 variants below
1. KKRTSIEVSVKGALESHFLKCPKPSAQEITSLADSLQLEKEVVRVWFCVRRQKEKR
2. KKRTSIEVSVKGALQSHFLKCPKPSAQEITSLADSLQLEKEVVRVWFCNRRQKEKR

Result:
[-0.103, -0.527]
